- Test system: MDA-MB-468 spheroids with HUVEC/MSC, viability
- assay.notes: Anticancer human tumor MDA-MB-468 cell line growth inhibition [PI3K];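 also: spheroids exposed to agents for seven days before readout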;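 as to viability, T/C: 100% = DMSO vehicle control viability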
- run.parameters: second compound 0.1 µM; first compound 0.01 µM; stronger effect = lower value
The compounds listed here are annotated with their viability, T/C.
Field: numeric (%). Do not append units.

Known viability, T/C results, listed for orientation:
{"compound": "CC(=O)c1c(C)c2cnc(Nc3ccc(N4CCNCC4)cn3)nc2n(C2CCCC2)c1=O + CC(Nc1ccc2c(c1)OCCn1cc(N3C(=O)OCC3C(F)F)nc1-2)C(N)=O", "study.target": "MDA-MB-468 spheroids with HUVEC/MSC, viability", "quantity.measured": "viability, T/C", "endpoint.result": 88.4}
{"compound": "Cn1ncnc1[C@H]1c2n[nH]c(=O)c3cc(F)cc(c23)N[C@@H]1c1ccc(F)cc1 + CC(Nc1ncnc2nc[nH]c12)c1cc2cccc(Cl)c2c(=O)n1-c1ccccc1", "study.target": "MDA-MB-468 spheroids with HUVEC/MSC, viability", "quantity.measured": "viability, T/C", "endpoint.result": 66}

Query compound follows.
Exercise: If you can, please state the reported viability, T/C value of CC(C)n1nc(-c2ccc3oc(N)nc3c2)c2c(N)ncnc21 + Cc1nc(NC(=O)N2CCCC2C(N)=O)sc1-c1ccnc(C(C)(C)C(F)(F)F)c1 .
Solution: 95

* * *

- Tested on: MDA-MB-468 spheroids with HUVEC/MSC, viability
- assay.notes: Anticancer human tumor MDA-MB-468 cell line growth inhibition [PI3K];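 also: spheroids exposed to agents for seven days before readout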
- run.parameters: curve of first compound; second compound 0.1 µM
- Source text: Combinatorial screen of targeted agents with the PI3K inhibitors inavolisib, alpelisib, duvelisib, and copanlisib in multi-cell type tumor spheroids A high-throughput screen of multi-cell type tumor spheroids was designed to identify active combinations of targeted small molecules and PI3K pathway inhibitors. […] Compounds. […] If the clinical Cmax for an agent had not been determined, the highest concentration tested was 10 microM. […]
The compounds listed here are annotated with their pIC50.
Please treat pIC50 as minus the base-10 logarithm of the molar concentration.

{"compound": "Cn1ncnc1[C@H]1c2n[nH]c(=O)c3cc(F)cc(c23)N[C@@H]1c1ccc(F)cc1 + CC(Nc1ccc2c(c1)OCCn1cc(N3C(=O)OCC3C(F)F)nc1-2)C(N)=O", "study.target": "MDA-MB-468 spheroids with HUVEC/MSC, viability", "pIC50": 7.06}
{"compound": "CC1(C)CCC(CN2CCN(c3ccc(C(=O)NS(=O)(=O)c4ccc(NCC5CCOCC5)c([N+](=O)[O-])c4)c(Oc4cnc5[nH]ccc5c4)c3)CC2)=C(c2ccc(Cl)cc2)C1 + CC(Nc1ccc2c(c1)OCCn1cc(N3C(=O)OCC3C(F)F)nc1-2)C(N)=O", "study.target": "MDA-MB-468 spheroids with HUVEC/MSC, viability", "pIC50": 5.36}

Query compound follows.
Exercise: If you can, please state the reported pIC50 value of CCCS(=O)(=O)Nc1ccc(F)c(C(=O)c2c[nH]c3ncc(-c4ccc(Cl)cc4)cc23)c1F + CC(Nc1ncnc2nc[nH]c12)c1cc2cccc(Cl)c2c(=O)n1-c1ccccc1 .
Solution: 5.41

* * *

- System: MDA-MB-468 spheroids with HUVEC/MSC, viability
- assay.notes: Anticancer human tumor MDA-MB-468 cell line growth inhibition [PI3K];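 also: spheroids exposed to agents for seven days before readout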;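 as to viability, T/C: 100% = DMSO vehicle control viability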
- run.parameters: second compound 0.1 µM; first compound 0.001 µM; stronger effect = lower value
The compounds listed here are annotated with their viability, T/C.
Field: numeric (%). Do not append units.

{"compound": "Cn1ncnc1[C@H]1c2n[nH]c(=O)c3cc(F)cc(c23)N[C@@H]1c1ccc(F)cc1 + CC(Nc1ccc2c(c1)OCCn1cc(N3C(=O)OCC3C(F)F)nc1-2)C(N)=O", "study.target": "MDA-MB-468 spheroids with HUVEC/MSC, viability", "reading.unit": "%", "endpoint.result": 77.4}
{"compound": "CC(=O)c1c(C)c2cnc(Nc3ccc(N4CCNCC4)cn3)nc2n(C2CCCC2)c1=O + Cc1nc(NC(=O)N2CCCC2C(N)=O)sc1-c1ccnc(C(C)(C)C(F)(F)F)c1", "study.target": "MDA-MB-468 spheroids with HUVEC/MSC, viability", "reading.unit": "%", "endpoint.result": 92.2}
{"compound": "CC(C)n1nc(-c2ccc3oc(N)nc3c2)c2c(N)ncnc21 + Cc1nc(NC(=O)N2CCCC2C(N)=O)sc1-c1ccnc(C(C)(C)C(F)(F)F)c1", "study.target": "MDA-MB-468 spheroids with HUVEC/MSC, viability", "reading.unit": "%", "endpoint.result": 79.6}
{"compound": "CC(C)n1nc(-c2ccc3oc(N)nc3c2)c2c(N)ncnc21 + CC(Nc1ccc2c(c1)OCCn1cc(N3C(=O)OCC3C(F)F)nc1-2)C(N)=O", "study.target": "MDA-MB-468 spheroids with HUVEC/MSC, viability", "reading.unit": "%", "endpoint.result": 82.4}
{"compound": "CC(C)n1nc(-c2ccc3oc(N)nc3c2)c2c(N)ncnc21 + COc1c(OCCCN2CCOCC2)ccc2c3n(c(=NC(=O)c4cnc(N)nc4)nc12)CCN3", "study.target": "MDA-MB-468 spheroids with HUVEC/MSC, viability", "reading.unit": "%", "endpoint.result": 63.6}

Query compound follows.
Exercise: # get_value(readout= viability, T/C, system= MDA-MB-468 spheroids with HUVEC/MSC, viability) for CC(=O)c1c(C)c2cnc(Nc3ccc(N4CCNCC4)cn3)nc2n(C2CCCC2)c1=O + CC(Nc1ncnc2nc[nH]c12)c1cc2cccc(Cl)c2c(=O)n1-c1ccccc1
Solution: 91.2
